# TARGET_UNDER_TEST: UniProt Q9Y2T5
# Sequence (Q9Y2T5 whole entry): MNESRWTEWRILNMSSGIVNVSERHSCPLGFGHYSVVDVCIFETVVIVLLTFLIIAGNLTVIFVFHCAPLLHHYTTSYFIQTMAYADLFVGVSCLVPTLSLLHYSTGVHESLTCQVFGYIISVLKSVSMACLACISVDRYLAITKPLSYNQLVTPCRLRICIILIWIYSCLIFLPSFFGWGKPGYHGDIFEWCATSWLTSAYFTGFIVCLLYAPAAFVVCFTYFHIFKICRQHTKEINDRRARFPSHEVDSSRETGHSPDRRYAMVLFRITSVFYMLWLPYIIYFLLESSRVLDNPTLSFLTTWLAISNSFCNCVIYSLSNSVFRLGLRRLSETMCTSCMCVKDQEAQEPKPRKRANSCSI
# TEST_DESCRIPTION: Agonist activity at human GPR52 expressed in CHO cells assessed as increase in cAMP level after 30 mins by AlphaScreen assay
Listed below: log10 of EC50 values for each entry.
READOUT: log10 of EC50 (log10 of the value in nM)

[
  {
    "STRUCTURE_AS_SMILES": "Cc1cc(-c2sc(Cc3ccccc3Cl)nc2C)ccc1C(N)=O",
    "TARGET_UNDER_TEST": "UniProt Q9Y2T5",
    "READOUT": "log10 of EC50",
    "READING": 3.59
  },
  {
    "STRUCTURE_AS_SMILES": "CCc1cc(-c2sc(Cc3cccc(C(F)(F)F)c3)nc2C)ccc1C(N)=O",
    "TARGET_UNDER_TEST": "UniProt Q9Y2T5",
    "READOUT": "log10 of EC50",
    "READING": 1.92
  },
  {
    "STRUCTURE_AS_SMILES": "Cc1nc(Cc2cccc(C(F)(F)F)c2)sc1-c1ccc(C(N)=O)cn1",
    "TARGET_UNDER_TEST": "UniProt Q9Y2T5",
    "READOUT": "log10 of EC50",
    "READING": 2.60
  },
  {
    "STRUCTURE_AS_SMILES": "COc1cccc(Cc2nc(C)c(-c3ccc(C(N)=O)c(C)c3)s2)c1",
    "TARGET_UNDER_TEST": "UniProt Q9Y2T5",
    "READOUT": "log10 of EC50",
    "READING": 2.20
  },
  {
    "STRUCTURE_AS_SMILES": "Cc1cc(-c2sc(Cc3cccc(Cl)c3)nc2C)ccc1C(N)=O",
    "TARGET_UNDER_TEST": "UniProt Q9Y2T5",
    "READOUT": "log10 of EC50",
    "READING": 2.11
  },
  {
    "STRUCTURE_AS_SMILES": "Cc1cc(-c2sc(Cc3ccc(Cl)cc3)nc2C)ccc1C(N)=O",
    "TARGET_UNDER_TEST": "UniProt Q9Y2T5",
    "READOUT": "log10 of EC50",
    "READING": 2.32
  },
  {
    "STRUCTURE_AS_SMILES": "Cc1nc(Cc2cccc(C(F)(F)F)c2)sc1-c1ccc(C(N)=O)c(C(F)(F)F)c1",
    "TARGET_UNDER_TEST": "UniProt Q9Y2T5",
    "READOUT": "log10 of EC50",
    "READING": 2.04
  },
  {
    "STRUCTURE_AS_SMILES": "Cc1nc(Cc2cccc(C(F)(F)F)c2)sc1-c1ccc(C(N)=O)c(F)c1",
    "TARGET_UNDER_TEST": "UniProt Q9Y2T5",
    "READOUT": "log10 of EC50",
    "READING": 2.58
  },
  {
    "STRUCTURE_AS_SMILES": "Cc1cc(-c2sc(Cc3cccc(C(F)(F)F)c3)nc2C)ccc1C(N)=O",
    "TARGET_UNDER_TEST": "UniProt Q9Y2T5",
    "READOUT": "log10 of EC50",
    "READING": 1.86
  },
  {
    "STRUCTURE_AS_SMILES": "Cc1cc(-n2cc(Cc3cc(F)cc(C(F)(F)F)c3)nc2C)ccc1C(N)=O",
    "TARGET_UNDER_TEST": "UniProt Q9Y2T5",
    "READOUT": "log10 of EC50",
    "READING": 1.77
  }
]
